Hello, the source for this data is patent US20260285880A1, in case you need it.

target: Flpin-293-PDE4B2 cells (Homo sapiens, UniProt Q07343); assay: cell-based; conditions: read-out: Cell Inhibition % @100 nM, 100 nM, Flpin-293-PDE4B2 cells
Sequence (Q07343 1-564 isoform Q07343-2): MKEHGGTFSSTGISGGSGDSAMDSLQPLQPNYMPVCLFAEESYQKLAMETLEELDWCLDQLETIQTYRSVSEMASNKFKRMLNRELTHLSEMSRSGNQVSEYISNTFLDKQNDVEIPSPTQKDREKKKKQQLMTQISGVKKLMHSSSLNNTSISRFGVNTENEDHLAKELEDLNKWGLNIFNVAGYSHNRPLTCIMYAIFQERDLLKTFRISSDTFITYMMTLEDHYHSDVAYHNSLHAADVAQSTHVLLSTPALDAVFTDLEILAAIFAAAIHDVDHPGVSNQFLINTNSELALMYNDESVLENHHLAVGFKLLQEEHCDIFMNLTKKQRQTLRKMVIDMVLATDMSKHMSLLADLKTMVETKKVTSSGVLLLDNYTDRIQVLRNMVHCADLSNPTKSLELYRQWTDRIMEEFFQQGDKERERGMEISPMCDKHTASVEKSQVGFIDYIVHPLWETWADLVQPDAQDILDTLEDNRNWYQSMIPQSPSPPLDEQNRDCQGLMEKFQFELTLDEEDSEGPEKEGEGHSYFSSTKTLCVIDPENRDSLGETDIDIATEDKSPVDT
VALUE_KIND: inhibition at 0.1 µM (%)

compound="[O-][S+]1CCc2nc(N3CCc4cc(N5CC6CC6C5)ccc4C3)nc(NC3(CO)CCC3)c21 (stereo not shown)" value_kind="inhibition at 0.1 µM" experimental_value=95.9
compound="[O-][S+]1CCc2nc(N3CCc4cc(C(F)(F)F)ccc4C3)nc(NC3(CO)CCC3)c21 (stereo not shown)" value_kind="inhibition at 0.1 µM" experimental_value=99.5
compound="[O-][n+]1cc2c(c3ccc(Cl)cc31)CCN(c1nc3c(c(NC4(CO)CCC4)n1)[S+]([O-])CC3)C2 (stereo not shown)" value_kind="inhibition at 0.1 µM" experimental_value=67.5
compound="[O-][S+]1CCc2nc(N3CCc4cc(N5CCCC5)ccc4C3)nc(Nc3cnn(CCO)c3)c21 (stereo not shown)" value_kind="inhibition at 0.1 µM" experimental_value=94.3
compound="[O-][S+]1CCc2nc(N3CCc4ccc(Br)cc4CC3)nc(NC3(CO)CCC3)c21 (stereo not shown)" value_kind="inhibition at 0.1 µM" experimental_value=99
compound="[O-][S+]1CCc2nc(N3CCc4cc(N5CCC(F)C5)ccc4C3)nc(NC3(CO)CCC3)c21 (stereo not shown)" value_kind="inhibition at 0.1 µM" experimental_value=96
compound="CN1C[C@H]2C[C@@H]1CN2c1ccc2c(c1)CCN(c1nc3c(c(NC4(CO)CCC4)n1)[S+]([O-])CC3)C2 (stereo partly shown)" value_kind="inhibition at 0.1 µM" experimental_value=76.1

====

target: PDE4B2 (Homo sapiens); conditions: read-out: PDE4B2 IC50; enzyme assay
Sequence (Q07343 1-564 isoform Q07343-2, species assumed): as the sequence (Q07343 1-564 isoform Q07343-2) above
pIC50: −log10 of the molar value.
VALUE_KIND: pIC50

compound="C[C@H]1Cc2cc(Cl)ccc2CN1c1nc2c(c(NC3(CO)CCC3)n1)[S+]([O-])CC2 (stereo partly shown)" target_under_test="PDE4B2 (Homo sapiens)" value_kind=pIC50 experimental_value=9.08

[A] CN(C)c1ccc2c(c1)CCN(c1nc3c(c(NC4(CO)CCC4)n1)[S+]([O-])CC3)C2 (stereo not shown)
[B] [O-][S+]1CCc2nc(N3CCc4cc(N5CCCC5)ccc4C3)nc(NC3(CO)CC3)c21 (stereo not shown)
[C] Cn1cc(CNc2nc(N3CCc4cc(N5CCCC5)ccc4C3)nc3c2[S+]([O-])CC3)cn1 (stereo not shown)
query: // ranking: key=pIC50, reverse=True Reply with the item labels sorted in the order that was asked for.
result: B, C, A
(B: 10.19, C: 9.77, A: 9.02)

====

molecular target: Flpin-293-PDE4B2 cells (Homo sapiens, UniProt Q07343); experiment: cell-based; settings: read-out: Cell Inhibition % @100 nM, 100 nM, Flpin-293-PDE4B2 cells
VALUE_KIND: inhibition at 0.1 µM (%)

See these solved cases before continuing.
molecule="CC(C)(O)[C@@H]1CCN(c2ccc3c(c2)CCN(c2nc4c(c(NC5(CO)CCC5)n2)[S+]([O-])CC4)C3)C1 (some centres unmarked)" target_under_test="Flpin-293-PDE4B2 cells (Homo sapiens, UniProt Q07343)" experimental_value=99.5
molecule="[O-][S+]1CCc2nc(N3CCc4cc(N5CC[C@H](O)C5)ccc4C3)nc(NC3(CO)CCC3)c21 (some centres unmarked)" target_under_test="Flpin-293-PDE4B2 cells (Homo sapiens, UniProt Q07343)" experimental_value=96.6

[1] [O-][S+]1CCc2nc(N3CCc4cc(-c5cnco5)ccc4C3)nc(NC3(CO)CCC3)c21 (centres unmarked)
[2] O=C(O)Cc1ccc(Nc2nc(N3CCc4cc(Cl)ccc4C3)nc3c2[S@@+]([O-])CC3)cc1
[3] Cn1cc2c(n1)CN(c1nc3c(c(NC4(CO)CCC4)n1)[S+]([O-])CC3)CC2 (centres unmarked)
query: Arrange these 3 molecules in increasing order of inhibition at 0.1 µM. Reply with the item labels sorted in the order that was asked for.
result: 2, 3, 1
(2: 25.4%, 3: 48%, 1: 101%)

====

target: PDE4B2 (Homo sapiens); assay: biochemical
VALUE_KIND: pIC50
In textbook form, pIC50 equals minus log to base ten of the concentration in mol/L.

query: So what's the measured pIC50 for this one? [O-][S@+]1CCc2nc(N3CCc4c(ccc5[nH]ncc45)C3)nc(NC3(CO)CCC3)c21
result: 9.38

====

molecular target: Flpin-293-PDE4B2 cells (Homo sapiens); assay: cell-based; details: read-out: Cell Inhibition % @100 nM, 100 nM, Flpin-293-PDE4B2 cells
VALUE_KIND: inhibition at 0.1 µM (%)

molecule="C[C@H]1c2ccc(N3CCC(F)(F)C3)cc2CCN1c1nc2c(c(NC3(CO)CCC3)n1)[S+]([O-])CC2 (stereo partly shown)" result_unit=% experimental_value=98.9
molecule="Nc1nc2cc(Cl)ccc2c2c1CN(c1nc3c(c(NC4(CO)CCC4)n1)[S+]([O-])CC3)CC2 (stereo not shown)" result_unit=% experimental_value=95.5
molecule="[O-][S+]1CCc2nc(N3CCc4cc(Cl)ccc4C3)nc(Nc3ccc(CCO)cc3)c21 (stereo not shown)" result_unit=% experimental_value=102
molecule="[O-][S+]1CCc2nc(N3CCc4cc(-c5ncco5)ccc4C3)nc(NC3(CO)CCC3)c21 (stereo not shown)" result_unit=% experimental_value=101

====

biological target: Flpin-293-PDE4B2 cells (Homo sapiens, UniProt Q07343); assay: cell-based; settings: read-out: Cell Inhibition % @10 nM, 10 nM, Flpin-293-PDE4B2 cells
VALUE_KIND: inhibition at 0.01 µM (%)

See these solved cases before continuing.
compound="[O-][S+]1CCc2nc(N3CCc4cc(N5CCOCC5)ccc4C3)nc(NC3(CO)CCC3)c21 (centres unmarked)" target_under_test="Flpin-293-PDE4B2 cells (Homo sapiens, UniProt Q07343)" result_unit=% experimental_value=51.4
compound="[O-][S+]1CCc2nc(N3CCc4cnc(Cl)cc4C3)nc(NC3(CO)CCC3)c21 (centres unmarked)" target_under_test="Flpin-293-PDE4B2 cells (Homo sapiens, UniProt Q07343)" result_unit=% experimental_value=11.2
compound="C[C@H]1c2ccc(N3CCCC3)cc2CCN1c1nc2c(c(Nc3cnn(C)c3)n1)[S+]([O-])CC2 (some centres unmarked)" target_under_test="Flpin-293-PDE4B2 cells (Homo sapiens, UniProt Q07343)" result_unit=% experimental_value=94.4
compound="COc1nn(C)cc1Nc1nc(N2CCc3cc(N4CCCC4)ccc3C2)nc2c1[S+]([O-])CC2 (centres unmarked)" target_under_test="Flpin-293-PDE4B2 cells (Homo sapiens, UniProt Q07343)" result_unit=% experimental_value=38.2
compound="[O-][S+]1CCc2nc(N3Cc4ccc(C(F)(F)F)cc4C3)nc(NC3(CO)CCC3)c21 (centres unmarked)" target_under_test="Flpin-293-PDE4B2 cells (Homo sapiens, UniProt Q07343)" result_unit=% experimental_value=29.5

[A] [O-][n+]1cc2c(c3ccc(Cl)cc31)CCN(c1nc3c(c(NC4(CO)CCC4)n1)[S+]([O-])CC3)C2 (centres unmarked)
[B] C[C@H]1Cc2cc(Cl)ccc2CN1c1nc2c(c(NC3(CO)CCC3)n1)[S+]([O-])CC2 (some centres unmarked)
[C] CN1C[C@@H](Nc2nc(N3CCc4cc(N5CCCC5)ccc4C3)nc3c2[S+]([O-])CC3)CCC1=O (some centres unmarked)
[D] C[C@H]1c2ccc(N3CCCC3)cc2CCN1c1nc2c(c(Nc3cnn(C4CN(C)C4)c3)n1)[S+]([O-])CC2 (some centres unmarked)
[E] C[C@@H]1CCCN1c1ccc2c(c1)CCN(c1nc3c(c(NC4(CO)CCC4)n1)[S+]([O-])CC3)C2 (some centres unmarked)
query: Arrange these 5 compounds in increasing order of inhibition at 0.01 µM. Reply with the item labels sorted in the order that was asked for.
result: D, A, E, B, C
(D: 9.75%, A: 21.2%, E: 33%, B: 49.9%, C: 100%)

[a] N#CC1CCN(c2ccc3c(c2)CCN(c2nc4c(c(NC5(CO)CCC5)n2)[S+]([O-])CC4)C3)C1 (centres unmarked)
[b] C[C@H]1c2ccc(N3CCCC3)cc2CCN1c1nc2c(c(Nc3nnn(C)n3)n1)[S+]([O-])CC2 (some centres unmarked)
[c] Cn1cc(Nc2nc(N3CCc4cc(N5CCCC5)ccc4C3)nc3c2[S+]([O-])CC3)cn1 (centres unmarked)
query: // ranking: key=inhibition at 0.01 µM, reverse=True Reply with the item labels sorted in the order that was asked for.
result: a, c, b
(a: 73.4%, c: 46.9%, b: 29.6%)

[I] COC[C@H]1CCCN1c1ccc2c(c1)CCN(c1nc3c(c(NC4(CO)CCC4)n1)[S+]([O-])CC3)C2 (some centres unmarked)
[II] [O-][S+]1CCc2nc(N3CC[C@@H]4c5ccc(Cl)nc5OC[C@H]4C3)nc(NC3(CO)CCC3)c21 (some centres unmarked)
[III] [O-][S+]1CCc2nc(N3CCc4cc(Cl)c(F)cc4C3)nc(NC3(CO)CCC3)c21 (centres unmarked)
[IV] C[C@H]1c2ccc(N3CCCC3)cc2CCN1c1nc2c(c(NC3(CO)CCOCC3)n1)[S+]([O-])CC2 (some centres unmarked)
query: Arrange these 4 compounds in increasing order of inhibition at 0.01 µM. Reply with the item labels sorted in the order that was asked for.
result: III, IV, II, I
(III: 15.7%, IV: 34.6%, II: 55.1%, I: 85.1%)
